B1: NF2 (merlin) isoform 7, human, full length (507 aa, lacks exons 2-3 = isoform-1 residues 39-121; exon-16 C-terminus), P35240-4 (parent)
chain: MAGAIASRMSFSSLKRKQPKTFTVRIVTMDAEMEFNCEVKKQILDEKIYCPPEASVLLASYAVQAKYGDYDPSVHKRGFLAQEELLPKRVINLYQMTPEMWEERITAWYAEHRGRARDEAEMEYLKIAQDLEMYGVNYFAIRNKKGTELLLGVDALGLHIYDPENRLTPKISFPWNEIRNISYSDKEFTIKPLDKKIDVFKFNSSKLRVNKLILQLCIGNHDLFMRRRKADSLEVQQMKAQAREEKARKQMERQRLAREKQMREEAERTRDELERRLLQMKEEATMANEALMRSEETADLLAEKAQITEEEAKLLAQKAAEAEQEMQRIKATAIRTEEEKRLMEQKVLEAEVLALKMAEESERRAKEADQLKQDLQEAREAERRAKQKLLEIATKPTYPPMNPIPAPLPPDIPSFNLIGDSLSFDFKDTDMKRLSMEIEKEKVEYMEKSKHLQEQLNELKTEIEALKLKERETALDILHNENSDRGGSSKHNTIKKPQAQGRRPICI

- Variants of: B1
- Assay comment: reverse yeast two-hybrid deep mutational scan (rY2H-seq): NF2 isoform 7 mutant library as bait mated with wild-type prey strains; selection on medium lacking adenine for non-interacting pairs; NextSeq paired-end sequencing; enrichment vs …
- Measurement setup: with KDM1A (lysine-specific histone demethylase 1A; the table's label AOF2 is a gene synonym of KDM1A), O60341; yeast diploids after mating (RBait_S3 x RPrey_S3), 30 °C, selection for reporter genes on NB agar; human ABL2 co-expressed as the kinase-dead K35M mutant …; HIGHER = WEAKER BINDING (the opposite of display enrichments): higher = stronger loss of interaction: reverse Y2H selects yeast in which bait and prey do NOT interact (growth without adenine), so a …; hits-only table; scale: rY2H score; numbering: uniprot, sequence starts at 1
Use 2 as the dividing line for enrichment, with the line itself on the 1 side and lower values as -1.

Identify whether the reported enrichment of the following variant is 2 or greater: N402L -1

Identify whether the reported enrichment of the following variant is 2 or greater: C506S -1

Identify whether the reported enrichment of the following variant is 2 or greater: L151S 1

Identify whether the reported enrichment of the following variant is 2 or greater: A393L -1

Identify whether the reported enrichment of the following variant is 2 or greater: R363G -1

Identify whether the reported enrichment of the following variant is 2 or greater: D369K 1

Identify whether the reported enrichment of the following variant is 2 or greater: Q324A 1

Identify whether the reported enrichment of the following variant is 2 or greater: E164A 1

Identify whether the reported enrichment of the following variant is 2 or greater: L408K -1

Identify whether the reported enrichment of the following variant is 2 or greater: M431E 1
